test system: Southern Corn Rootworm Adults; test: Field trial, stomach poison test; assay type: in vivo; set-up: key: mortality rating on a 0 to 9 scale; conditions: 25 ppm
property_name: average mortality rating
Number only, no unit.

O=[N+]([O-])c1cc(C(F)(F)F)cc2[nH]c(C(F)(F)Cl)nc12 :: 1

Please fill in: average mortality rating reported for "CCCCCCOC(=O)n1c(C(F)(F)F)nc2c([N+](=O)[O-])cc(C(F)(F)F)cc21" = 5

"O=[N+]([O-])c1cc(C(F)(F)F)cc2nc(C(F)(F)F)[nH]c12.[Na]" yielded average mortality rating of 4

----------
test system: Alfalfa Weevil Larvae; assay: Field trial, contact poison test; type: in vivo; settings: 500 ppm
Measured average mortality rating, listed per entry.
Returns: the value as a bare number; no unit string appended.

O=[N+]([O-])c1cc(C(F)(F)F)cc2nc(C(F)(F)F)[nH]c12 :: 3
O=[N+]([O-])c1cc(C(F)(F)F)cc2c1nc(C(F)(F)F)n2S(=O)(=O)c1ccccc1 :: 8
CC(C)OC(=O)n1c(C(F)(F)F)nc2c([N+](=O)[O-])cc(C(F)(F)F)cc21 :: 1

# average mortality rating of "CCCCCCOC(=O)n1c(C(F)(F)F)nc2c([N+](=O)[O-])cc(C(F)(F)F)cc21" = 4

----------
// reported average mortality rating per item
system: Southern Corn Rootworm Adults; experiment: Field trial, contact poison test; assay type: in vivo; conditions: 100 ppm

The cases that follow already have their average mortality rating on record.
O=[N+]([O-])c1cc(C(F)(F)F)cc2[nH]c(C(F)(F)Cl)nc12 :: 9 (91-100 percent mortality)
CCOC(=O)n1c(C(F)(F)F)nc2c([N+](=O)[O-])cc(C(F)(F)F)cc21 :: 9 (91-100 percent mortality)

Here's the next entry for you.
// field: average mortality rating; key: "O=[N+]([O-])c1cc(C(F)(F)F)cc2c1nc(C(F)(F)F)n2S(=O)(=O)c1ccccc1" ; value = 9 (91-100 percent mortality)

----------
test system: Southern Corn Rootworm Adults; assay: Field trial, stomach poison test; assay type: in vivo; conditions: 25 ppm
property_name: average mortality rating
No unit in the answer, only the number.

Examples with their reported average mortality rating follow.
CCOC(=O)n1c(C(F)(F)F)nc2c([N+](=O)[O-])cc(C(F)(F)F)cc21 [U] :: 5
O=[N+]([O-])c1cc(C(F)(F)F)cc2c1nc(C(F)(F)F)n2S(=O)(=O)c1ccccc1 [F] :: 3

// field: average mortality rating; key: O=[N+]([O-])c1cc(C(F)(F)F)cc2nc(C(F)(F)F)[nH]c12 [A] ; value = 4
